Biological target: PI3Kδ (p1106/p85a) Recombinant Human Protein (Homo sapiens (Human))
Sequence (O00329 whole entry): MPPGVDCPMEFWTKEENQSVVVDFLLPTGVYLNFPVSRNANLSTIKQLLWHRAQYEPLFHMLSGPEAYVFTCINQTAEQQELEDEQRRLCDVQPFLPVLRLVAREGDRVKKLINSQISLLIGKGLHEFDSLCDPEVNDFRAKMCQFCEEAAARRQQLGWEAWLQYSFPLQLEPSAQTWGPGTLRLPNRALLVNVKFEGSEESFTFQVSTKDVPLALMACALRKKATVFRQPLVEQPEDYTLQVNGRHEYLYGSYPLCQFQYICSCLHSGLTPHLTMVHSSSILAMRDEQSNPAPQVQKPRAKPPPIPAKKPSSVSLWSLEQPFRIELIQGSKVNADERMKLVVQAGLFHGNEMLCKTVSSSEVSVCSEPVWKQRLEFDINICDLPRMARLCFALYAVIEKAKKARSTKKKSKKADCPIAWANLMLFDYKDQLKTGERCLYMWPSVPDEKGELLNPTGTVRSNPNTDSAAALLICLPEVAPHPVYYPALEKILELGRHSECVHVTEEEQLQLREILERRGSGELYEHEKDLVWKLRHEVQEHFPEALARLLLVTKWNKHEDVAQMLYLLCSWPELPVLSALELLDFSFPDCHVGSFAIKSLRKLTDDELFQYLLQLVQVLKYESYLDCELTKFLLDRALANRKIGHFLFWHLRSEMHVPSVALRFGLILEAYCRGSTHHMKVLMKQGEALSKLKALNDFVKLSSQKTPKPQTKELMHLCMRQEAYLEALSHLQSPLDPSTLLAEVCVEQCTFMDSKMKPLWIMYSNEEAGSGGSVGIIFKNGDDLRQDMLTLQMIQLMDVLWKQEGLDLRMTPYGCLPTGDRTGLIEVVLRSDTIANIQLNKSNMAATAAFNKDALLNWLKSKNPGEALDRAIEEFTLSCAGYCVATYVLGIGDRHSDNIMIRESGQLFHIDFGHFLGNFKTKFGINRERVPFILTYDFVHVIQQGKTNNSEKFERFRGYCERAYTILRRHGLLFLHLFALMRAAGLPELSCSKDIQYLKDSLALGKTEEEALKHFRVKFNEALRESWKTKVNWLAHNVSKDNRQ
Sequence (P27986 whole entry partner): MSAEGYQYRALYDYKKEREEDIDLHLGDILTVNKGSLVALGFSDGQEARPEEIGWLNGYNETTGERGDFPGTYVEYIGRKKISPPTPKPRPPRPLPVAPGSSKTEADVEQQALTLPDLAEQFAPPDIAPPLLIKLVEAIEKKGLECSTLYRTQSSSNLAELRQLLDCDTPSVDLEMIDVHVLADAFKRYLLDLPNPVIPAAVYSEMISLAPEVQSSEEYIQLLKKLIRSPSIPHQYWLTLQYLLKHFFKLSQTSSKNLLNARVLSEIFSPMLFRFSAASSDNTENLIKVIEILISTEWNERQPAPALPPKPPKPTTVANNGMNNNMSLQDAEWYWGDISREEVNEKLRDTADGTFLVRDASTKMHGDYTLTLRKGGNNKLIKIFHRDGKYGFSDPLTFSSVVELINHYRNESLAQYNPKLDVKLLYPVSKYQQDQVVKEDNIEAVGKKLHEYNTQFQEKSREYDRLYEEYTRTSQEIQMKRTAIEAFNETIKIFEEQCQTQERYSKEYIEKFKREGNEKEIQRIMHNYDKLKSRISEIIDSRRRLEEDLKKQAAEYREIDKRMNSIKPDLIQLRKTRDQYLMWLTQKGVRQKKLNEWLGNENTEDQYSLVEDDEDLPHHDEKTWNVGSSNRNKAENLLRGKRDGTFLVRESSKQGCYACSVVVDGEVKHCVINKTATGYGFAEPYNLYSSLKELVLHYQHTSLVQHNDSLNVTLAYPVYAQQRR
Assay: PI3Kδ scintillation proximity assay
Assay type: biochemical
Details: Table A4; scintillation proximity assay, recombinant human PI3Kδ
pIC50: −log10 of the molar value. Structures can show the parent of a compound that is named as a salt.
MEASURED_ENDPOINT: pIC50

MOLECULE | VAL
Cc1ccc(C(O)(C(N)=O)C(F)(F)F)cc1-c1cnc(N)c(N2CCN(c3ccc(C#N)cc3)CC2)n1 (centres unmarked) [Example 123, trifluoroacetate] | > 7.00
Cc1ccc(C(O)(C(N)=O)C(F)(F)F)cc1-c1cnc(N)c(N2CCN(c3ccccc3C#N)CC2)n1 (centres unmarked) | > 7.00
CCOC(=O)C1CC(c2nc(-c3cc(C(O)(C(N)=O)C(F)(F)F)ccc3C)cnc2N)C1 (single isomer, unassigned) | 6.30 to 7.00

Record request: pIC50 value, item CC(=O)N1CCN(c2nc(-c3cc(C(O)(C(N)=O)C(F)(F)F)ccc3C)cnc2N)CC1 (centres unmarked) [Example 114, trifluoroacetate]
> 7.00

Could you tell me which pIC50 is on file for Cc1ccc(C(O)(C(N)=O)C(F)(F)F)cc1-c1cnc(N)c(N2CCN(c3cccc(C(F)(F)F)c3)CC2)n1 (centres unmarked) [Example 121, trifluoroacetate] ?
6.30 to 7.00

Which pIC50 value is on record for Cc1ccc([C@@](O)(C(N)=O)C(F)(F)F)cc1-c1cnc(N)c(N2CCN(C(=O)C3CC3)CC2)n1 [Example 115, trifluoroacetate] ?
> 7.00

What value of pIC50 has been reported for the following molecule? Cc1ccc(C(O)(C(N)=O)C(F)(F)F)cc1-c1cnc(N)c(C2CC(C(=O)NC(C)C)C2)n1 (single isomer, unassigned)
6.30 to 7.00

Query (molecule): Cc1ccc(C(O)(C(N)=O)C(F)(F)F)cc1-c1cnc(N)c(N2CC(=O)N(c3ccc(O)cc3)[C@@H](CO)C2)n1 (some centres unmarked) [Example 124, trifluoroacetate] ; field requested: pIC50
6.30 to 7.00

Given the molecule Cc1ccc(C(O)(C(N)=O)C(F)(F)F)cc1-c1cnc(N)c(N2CCN(c3ccccc3)CC2)n1 (centres unmarked) [Example 116, trifluoroacetate] , what is its reported pIC50?
6.30 to 7.00

I am curious: what pIC50 value has been reported for Cc1ccc(C)c(N2CCN(c3nc(-c4cc(C(O)(C(N)=O)C(F)(F)F)ccc4C)cnc3N)CC2)c1 (centres unmarked) [Example 119, trifluoroacetate] ?
6.30 to 7.00

Any idea what its pIC50 is? The molecule is Cc1ccc(C(O)(C(N)=O)C(F)(F)F)cc1-c1cnc(N)c(N2CCN(C3CC3)C(=O)C2)n1 (centres unmarked) [Example 112, Trifluoroacetate]
6.30 to 7.00

pIC50 lookup needed for Cc1ccc(C(O)(C(N)=O)C(F)(F)F)cc1-c1cnc(N)c(N2CCN(c3cncs3)CC2)n1 (centres unmarked) [Example 120, trifluoroacetate] , thanks.
> 7.00

Data request, read-out pIC50, for CCOc1ccccc1N1CCN(c2nc(-c3cc(C(O)(C(N)=O)C(F)(F)F)ccc3C)cnc2N)CC1 (centres unmarked) [Example 129, trifluoroacetate]
6.30 to 7.00

Name the recorded pIC50 for Cc1ccc(C(O)(C(N)=O)C(F)(F)F)cc1-c1cnc(N)c(N2CCN(c3nccnc3C#N)CC2)n1 (centres unmarked) [Example 128, trifluoroacetate] .
> 7.00

Return reported pIC50; argument: Cc1ccc(C(O)(C(N)=O)C(F)(F)F)cc1-c1cnc(N)c(N2CCN3C(=O)CCC3C2)n1 (centres unmarked) [Example 126, trifluoroacetate]
> 7.00

Please look up its pIC50: Cc1ccc(C(O)(C(N)=O)C(F)(F)F)cc1-c1cnc(N)c(N2CCN(c3ccccc3C)CC2)n1 (centres unmarked) [Example 118, trifluoroacetate]
6.30 to 7.00

pIC50 for Cc1ccc(C(O)(C(N)=O)C(F)(F)F)cc1-c1cnc(N)c(N2CCN(C(C)(C)C)C(=O)C2)n1 (centres unmarked) [Example 113, trifluoroacetate] ?
6.30 to 7.00
